These entries and their values trace back to patent US20200237766A1.

target: PKM2 (Homo sapiens); test: PKM2 activation biochemical assay (AC50 / max. response vs fructose 1,6-bisphosphate)
Give measured AC50 for each item. Keep answers brief.
Reply numerically in nM, unit not repeated.

response.value for O=C(c1cc(C(F)(F)F)n[nH]1)N(Cc1ccccc1Cl)CC1CCC1 [Compound 127] (field: AC50) = 258

response.value for O=C(c1cc(Cl)n[nH]1)N(CCC1CCS(=O)(=O)CC1)Cc1ccccc1F [Compound 81] (field: AC50) = 1370

response.value for O=C(c1cc(C(F)(F)F)n[nH]1)N(CCN1CCCC1)Cc1ccccc1Cl [Compound 162] (field: AC50) = 107

response.value for CO[C@H]1CC[C@H](N(Cc2cc(F)ccc2F)C(=O)c2cc(C(F)(F)F)n[nH]2)CC1 [Compound 50] (field: AC50) = 1670

response.value for O=C(c1cc(C2CC2)n[nH]1)N(CCC(F)(F)F)Cc1ccc(O)cc1F [Compound 129] (field: AC50) = 10500

response.value for O=C(c1cc(C(F)(F)F)n[nH]1)N(CCC1CCS(=O)(=O)C1)Cc1ccccc1Cl (centres unmarked) [Compound 62] (field: AC50) = 273

response.value for CCO[C@H]1CC[C@H](N(Cc2ccccc2F)C(=O)c2cc(C(F)(F)F)n[nH]2)CC1 [Compound 55] (field: AC50) = 469

response.value for CO[C@H]1CC[C@H](N(Cc2ncccc2Cl)C(=O)c2cc(C(F)(F)F)n[nH]2)CC1 [Compound 56] (field: AC50) = 2580

response.value for CCN(CC)CCN(Cc1cccc(F)c1Cl)C(=O)c1cc(C(F)(F)F)n[nH]1 [Compound 182] (field: AC50) = 109

response.value for CCN(CC)CCN(Cc1ccc(F)cc1Cl)C(=O)c1cc(C(F)(F)F)n[nH]1 [Compound 170] (field: AC50) = 505

response.value for CN1CCN(CCN(Cc2ccccc2F)C(=O)c2cc(C(F)(F)F)n[nH]2)CC1 [Compound 103] (field: AC50) = 37000

response.value for Nc1cccc(CN(CCN2CCCCCC2)C(=O)c2cc(C(F)(F)F)n[nH]2)c1Cl [Compound 213] (field: AC50) = 60

response.value for Nc1cccc(Cl)c1CN(CCN1CC[C@H](F)C1)C(=O)c1cc(C(F)(F)F)n[nH]1 [Compound 241] (field: AC50) = 125

response.value for O=C(c1cc(C(F)(F)F)n[nH]1)N(CCC1CCS(=O)(=O)C1)Cc1c(F)cccc1F (centres unmarked) [Compound 66] (field: AC50) = 375

response.value for O=C(c1cc(C(F)(F)F)n[nH]1)N(CCC1CCNCC1)Cc1ccccc1F [Compound 98] (field: AC50) = 2050

response.value for O=C(c1cc(C(F)(F)F)n[nH]1)N(CCC1CCS(=O)(=O)C1)Cc1cccc(F)c1 (centres unmarked) [Compound 67] (field: AC50) = 1630

response.value for CCN(CC)CCN(Cc1cc(F)ccc1Cl)C(=O)c1cc(C(F)(F)F)n[nH]1 [Compound 171] (field: AC50) = 88

---

Give measured Max. Resp. (%) for each item. Keep answers brief.
target: PKM2 (Homo sapiens, UniProt P14618); experiment: PKM2 activation biochemical assay (AC50 / max. response vs fructose 1,6-bisphosphate); settings: % maximum response in a biochemical assay as compared with Fructose 1,6-bisphosphate
Sequence (P14618 whole entry): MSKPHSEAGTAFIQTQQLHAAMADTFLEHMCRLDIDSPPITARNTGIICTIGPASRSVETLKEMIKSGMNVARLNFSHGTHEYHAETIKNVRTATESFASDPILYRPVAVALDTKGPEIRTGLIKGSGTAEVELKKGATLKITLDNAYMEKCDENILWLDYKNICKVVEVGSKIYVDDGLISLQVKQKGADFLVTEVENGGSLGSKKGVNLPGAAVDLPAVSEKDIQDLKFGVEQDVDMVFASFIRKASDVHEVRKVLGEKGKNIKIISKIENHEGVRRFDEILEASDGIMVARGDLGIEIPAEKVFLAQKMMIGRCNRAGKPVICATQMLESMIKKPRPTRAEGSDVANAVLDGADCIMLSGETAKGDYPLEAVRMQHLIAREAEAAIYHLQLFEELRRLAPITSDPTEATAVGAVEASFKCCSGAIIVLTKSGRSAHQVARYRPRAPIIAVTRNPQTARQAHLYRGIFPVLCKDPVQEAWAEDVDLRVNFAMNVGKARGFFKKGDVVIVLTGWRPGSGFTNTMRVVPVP
Reply numerically in %, unit not repeated.

Note to self: Max. Resp. (%) of CCN(CC)CCN(Cc1ccccc1Cl)C(=O)c1cc(Br)n[nH]1 [Compound 175] with PKM2 (Homo sapiens, UniProt P14618) was 100

Note to self: Max. Resp. (%) of O=C(c1cc(C(F)(F)F)n[nH]1)N(CCC1CCS(=O)(=O)C1)Cc1cncs1 (centres unmarked) [Compound 93] with PKM2 (Homo sapiens, UniProt P14618) was 26

Note to self: Max. Resp. (%) of O=C(c1cc(C(F)(F)F)n[nH]1)N(CCC(F)(F)F)Cc1ccc(O)cc1F [Compound 130] with PKM2 (Homo sapiens, UniProt P14618) was 100

Note to self: Max. Resp. (%) of CO[C@H]1CC[C@H](N(Cc2cccc(N)c2)C(=O)c2cc(C(F)(F)F)n[nH]2)CC1 [Compound 54] with PKM2 (Homo sapiens, UniProt P14618) was 93

Note to self: Max. Resp. (%) of COC1CCN(CCN(Cc2c(N)cccc2Cl)C(=O)c2cc(C(F)(F)F)n[nH]2)C1 (centres unmarked) [Compound 235] with PKM2 (Homo sapiens, UniProt P14618) was 100

Note to self: Max. Resp. (%) of Nc1ccc(Cl)c(CN(CCN2CCCCCC2)C(=O)c2cc(C(F)(F)F)n[nH]2)c1 [Compound 196] with PKM2 (Homo sapiens, UniProt P14618) was 100

Note to self: Max. Resp. (%) of O=C(c1cc(C(F)(F)F)n[nH]1)N(Cc1cccc(F)c1O)CC1CCC1 [Compound 136] with PKM2 (Homo sapiens, UniProt P14618) was 100

Note to self: Max. Resp. (%) of Nc1cccc(Cl)c1CN(CCN1CC[C@@H](F)C1)C(=O)c1cc(C(F)(F)F)n[nH]1 [Compound 242] with PKM2 (Homo sapiens, UniProt P14618) was 100

Note to self: Max. Resp. (%) of O=C(c1cc(C(F)(F)F)n[nH]1)N(CCC1CCCCO1)Cc1ccccc1Cl (centres unmarked) [Compound 44] with PKM2 (Homo sapiens, UniProt P14618) was 32

Note to self: Max. Resp. (%) of O=C(c1cc(C(F)(F)F)n[nH]1)N(Cc1ccc(O)cc1Cl)CC1CCC1 [Compound 124] with PKM2 (Homo sapiens, UniProt P14618) was 100

Note to self: Max. Resp. (%) of O=C(c1cc(C(F)(F)F)n[nH]1)N(CCC1CCS(=O)(=O)C1)Cc1cccc(F)c1F (centres unmarked) [Compound 68] with PKM2 (Homo sapiens, UniProt P14618) was 103

Note to self: Max. Resp. (%) of Nc1cccc(Cl)c1CN(CCN1CCC(F)CC1)C(=O)c1cc(C(F)(F)F)n[nH]1 [Compound 238] with PKM2 (Homo sapiens, UniProt P14618) was 100

Note to self: Max. Resp. (%) of O=C(c1cc(C(F)(F)F)n[nH]1)N(Cc1ccccc1Cl)CC1CCN1 (centres unmarked) [Compound 227] with PKM2 (Homo sapiens, UniProt P14618) was 100

Note to self: Max. Resp. (%) of O=C(c1cc(Cl)n[nH]1)N(CCC1CCSCC1)Cc1ccccc1F [Compound 80] with PKM2 (Homo sapiens, UniProt P14618) was 46

Note to self: Max. Resp. (%) of O=C(c1cc(C(F)(F)F)n[nH]1)N(CCC1CCSCC1)Cc1c(F)cccc1F [Compound 84] with PKM2 (Homo sapiens, UniProt P14618) was 73

Note to self: Max. Resp. (%) of CN(C)CCCN(Cc1ccccc1Cl)C(=O)c1cc(C(F)(F)F)n[nH]1 [Compound 186] with PKM2 (Homo sapiens, UniProt P14618) was 100

Note to self: Max. Resp. (%) of CCCN(CC)CCN(Cc1c(N)cccc1F)C(=O)c1cc(C(F)(F)F)n[nH]1 [Compound 240] with PKM2 (Homo sapiens, UniProt P14618) was 100
